Kindly supply the reported glycan array binding signal (z-score) values for the records listed here.
tested.system: Fuc(a1-2)[Gal(a1-3)]Gal(b1-4)[Fuc(a1-3)]Glc
measurement.protocol: glycan array binding signal (z-score within array); higher = stronger binding
reported.conditions: glycan notation: IUPAC condensed, linker removed
This is one part of a sample in which the strongest signals are shown more often than they occur.
One number for each entry.

{"columns": ["binder", "observed.property", "observed"],
 "data": [
  ["Epa2 (Candida glabrata) (protein) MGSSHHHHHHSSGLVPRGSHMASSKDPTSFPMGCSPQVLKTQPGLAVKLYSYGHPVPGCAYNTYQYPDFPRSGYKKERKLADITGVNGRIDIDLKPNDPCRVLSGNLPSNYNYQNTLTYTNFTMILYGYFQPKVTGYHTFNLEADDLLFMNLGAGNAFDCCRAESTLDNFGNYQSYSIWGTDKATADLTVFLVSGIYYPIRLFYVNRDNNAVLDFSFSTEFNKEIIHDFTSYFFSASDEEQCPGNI", "glycan array binding signal (z-score)", -0.56]
]}

Working through the 3 binders below one at a time, give glycan array binding signal (z-score) for each.
1. HA-11100 (Pseudomonas aeruginosa), Q02G51_PSEAB (protein) QFNPNEIKISQQGKTTLIDQSTQRAIINWKGFDVSADEAVRFNQPGVTSSTLNRVTAGQESVIAGRISAPGQVIIYNSNGVVFSGSAKVDVGSLITTTANISDEHFRQGKLIFDQPGNPDARIVNDGSISVAEKGLAAFVAPSVANNGVINARLGTVAMAAGNAATIDLYG
2. PNGase F (Flavobacterium meningosepticum) (protein) GIPAPADNTVNIKTFDKVKNAFGDGLSQSAEGTFTFPADVTAVKTIKMFIKNECPNKTCDEWDRYANVYVKNKTTGEWYEIGRFITPYWVGTEKLPRGLEIDVTDFKSLLSGNTELKIYTETWLAKGREYSVDFDIVYGTPDYKYSAVVPVVQYNKSSIDGVPYGKAHTLALKKNIQLPTNTEKAYLRTTISGWGHAKPYDAGSRGCAEWCFRTHTIAINNSNTFQHQLGALGCSANPINNQSPGNWTPDRAGWCPGMAVPTRIDVLNNSLIGSTFSYEYKFQNWTNNGTNGDAFYAISSFVIAKSNTPISAPVVTNLDPHHHHHH
3. Gz-CVNH (Gibberella zeae) (protein) MGSSHHHHHHSSGLVPRGSHMGNFHESSNNIWLEDGHILHAECGNGEGDYVESTLDLDYYIGNDDGSFSWGGENFSGSASNITLDIEGDDNIPVLRAELNPMDGDPVEANVNLSERIGNDCGTLIFLA

[0.052, -0.16, -0.109]
